Test system: SCC-15 (Oral Cavity Carcinoma)
PROTOCOL DETAILS: combination Emax (second highest fraction inhibited in the dose matrix, 72 h); higher = more inhibition; extreme values may be limits of the assay

MOLECULE	MEASUREMENT TARGET	combination Emax
C[C@@H](c1ccc2nccn2c1)n1nnc2ncc(-c3cnn(C)c3)nc21 [Savolitinib] + CN(CC[C@H](CSC1=CC=CC=C1)NC2=C(C=C(C=C2)S(=O)(=O)NC(=O)C3=CC=C(C=C3)N4CCC(CC4)[C@H](C5=CC=CC=C5C6=CC=C(C=C6)Cl)O)S(=O)(=O)C(F)(F)F)CCO [AZD4320] (first compound max 1 µM, 7x7, partner max 1 µM)	SCC-15 (Oral Cavity Carcinoma)	0.29
Cc1c2c(nn1C)CSCc1cc(n(C)n1)CSc1cc(c3ccccc3c1)OCCCc1c(C(=O)O)n(C)c3c-2c(Cl)ccc13 [AZD5991] + CC1(C)CCC(CN2CCN(c3ccc(C(=O)NS(=O)(=O)c4ccc(NCC5CCOCC5)c([N+](=O)[O-])c4)c(Oc4cnc5[nH]ccc5c4)c3)CC2)=C(c2ccc(Cl)cc2)C1 [Venetoclax] (first compound max 1 µM, 7x7, partner max 1 µM)	SCC-15 (Oral Cavity Carcinoma)	0.236
CN(CCO)CC[C@H](CSc1ccccc1)Nc1ccc(S(=O)(=O)NC(=O)c2ccc(N3CCC([C@@H](O)c4ccccc4-c4ccc(Cl)cc4)CC3)cc2)cc1S(=O)(=O)C(F)(F)F [AZD4320] + Cn1cnc2c(F)c(Nc3ccc(Br)cc3Cl)c(C(=O)NOCCO)cc21 [Selumetinib] (first compound max 1 µM, 7x7, partner max 3 µM)	SCC-15 (Oral Cavity Carcinoma)	0.548
COc1cccc(OCCCN)c1-c1cc(Nc2cnc(C#N)cn2)n[nH]1 [Prexasertib] + CN(C)CCCOc1ccc(-c2ccc3ncc4c(c3c2)n(C2CCOCC2)c(=O)n4C)cn1 [AZD0156] (first compound max 1 µM, 7x7, partner max 1 µM)	SCC-15 (Oral Cavity Carcinoma)	0.617
COc1nnc2ccc(N3CCC(c4ccc(OCCN5CCN(C)C(=O)[C@H]5C)cc4)CC3)nn12 [AZD5153] + C=CCn1c(=O)c2cnc(Nc3ccc(N4CCN(C)CC4)cc3)nc2n1-c1cccc(C(C)(C)O)n1 [AZD1775] (first compound max 1 µM, partner max 1 µM)	SCC-15 (Oral Cavity Carcinoma)	0.435
CN(CCO)CC[C@H](CSc1ccccc1)Nc1ccc(S(=O)(=O)NC(=O)c2ccc(N3CCC([C@@H](O)c4ccccc4-c4ccc(Cl)cc4)CC3)cc2)cc1S(=O)(=O)C(F)(F)F [AZD4320] + C1CN(CCC1(C(=O)N[C@@H](CCO)C2=CC=C(C=C2)Cl)N)C3=NC=NC4=C3C=CN4 [Capivasertib] (first compound max 1 µM, 7x7, partner max 3 µM)	SCC-15 (Oral Cavity Carcinoma)	0.14
NC1(C(=O)N[C@@H](CCO)c2ccc(Cl)cc2)CCN(c2ncnc3[nH]ccc23)CC1 [Capivasertib] + Cn1cnc2c(F)c(Nc3ccc(Br)cc3Cl)c(C(=O)NOCCO)cc21 [Selumetinib] (first compound max 10 µM, 7x7, partner max 10 µM)	SCC-15 (Oral Cavity Carcinoma)	0.524
COc1nnc2ccc(N3CCC(c4ccc(OCCN5CCN(C)C(=O)[C@H]5C)cc4)CC3)nn12 [AZD5153] + C[C@@H]1COCCN1C2=NC(=NC(=C2)C3(CC3)[S@](=N)(=O)C)C4=C5C=CNC5=NC=C4 [AZD6738] (first compound max 1 µM, 7x7, partner max 10 µM)	SCC-15 (Oral Cavity Carcinoma)	0.524

====

System: OVCAR-4 (Ovarian Carcinoma)
PROTOCOL DETAILS: Bliss excess, mean over the matrix (fraction); higher = more synergy

COMPOUND	MEASUREMENT TARGET	Bliss excess
CCc1c2c(nc3ccc(O)cc13)-c1cc3c(c(=O)n1C2)COC(=O)[C@]3(O)CC [SN-38] + O=C(c1cc(Cc2n[nH]c(=O)c3ccccc23)ccc1F)N1CCN(C(=O)C2CC2)CC1 [Olaparib] (first compound max 0.3 µM, 7x7, partner max 10 µM)	OVCAR-4 (Ovarian Carcinoma)	-0.0234
COc1cccc(OCCCN)c1-c1cc(Nc2cnc(C#N)cn2)n[nH]1 [Prexasertib] + Cc1cc2ncnn2cc1Nc1ncc2c(n1)n(C1CCOCC1)c(=O)n2C [AZD7648] (first compound max 1 µM, 7x7, partner max 10 µM)	OVCAR-4 (Ovarian Carcinoma)	-0.0739
C=CCn1c(=O)c2cnc(Nc3ccc(N4CCN(C)CC4)cc3)nc2n1-c1cccc(C(C)(C)O)n1 [AZD1775] + O=C(c1cc(Cc2n[nH]c(=O)c3ccccc23)ccc1F)N1CCN(C(=O)C2CC2)CC1 [Olaparib] (first compound max 1 µM, partner max 10 µM)	OVCAR-4 (Ovarian Carcinoma)	0.0249
NC1(C(=O)N[C@@H](CCO)c2ccc(Cl)cc2)CCN(c2ncnc3[nH]ccc23)CC1 [Capivasertib] + Cn1cnc2c(F)c(Nc3ccc(Br)cc3Cl)c(C(=O)NOCCO)cc21 [Selumetinib] (first compound max 10 µM, 7x7, partner max 10 µM)	OVCAR-4 (Ovarian Carcinoma)	-0.0254

====

Tested on: BT-549 (Breast Carcinoma)
PROTOCOL DETAILS: combination Emax (second highest fraction inhibited in the dose matrix, 72 h); higher = more inhibition; extreme values may be limits of the assay
MEASUREMENT NAME: combination Emax

COMPOUND	MEASUREMENT TARGET	EXPERIMENTAL RESULT
COc1nnc2ccc(N3CCC(c4ccc(OCCN5CCN(C)C(=O)[C@H]5C)cc4)CC3)nn12 [AZD5153] + Cc1c2c(nn1C)CSCc1cc(n(C)n1)CSc1cc(c3ccccc3c1)OCCCc1c(C(=O)O)n(C)c3c-2c(Cl)ccc13 [AZD5991] (first compound max 1 µM, 7x7, partner max 1 µM)	BT-549 (Breast Carcinoma)	0.814
C[C@@H]1COCCN1c1cc(C2([S@](C)(=N)=O)CC2)nc(-c2ccnc3[nH]ccc23)n1 [AZD6738] + C1CC(C1)(C(=O)[O-])C(=O)[O-].N.N.[Pt+2] [Carboplatin] (first compound max 10 µM, 7x7, partner max 10 µM)	BT-549 (Breast Carcinoma)	0.51
CC(=O)c1c(C)c2cnc(Nc3ccc(N4CCNCC4)cn3)nc2n(C2CCCC2)c1=O [Palbociclib] + CC1(C)CCC(CN2CCN(c3ccc(C(=O)NS(=O)(=O)c4ccc(NCC5CCOCC5)c([N+](=O)[O-])c4)c(Oc4cnc5[nH]ccc5c4)c3)CC2)=C(c2ccc(Cl)cc2)C1 [Venetoclax] (first compound max 10 µM, 7x7, partner max 1 µM)	BT-549 (Breast Carcinoma)	0.308

====

System: YH-13 (Glioblastoma)
PROTOCOL DETAILS: combination Emax (second highest fraction inhibited in the dose matrix, 72 h); higher = more inhibition; extreme values may be limits of the assay
MEASUREMENT NAME: combination Emax

MOLECULE	EXPERIMENTAL RESULT
Cn1cnc2c(F)c(Nc3ccc(Br)cc3Cl)c(C(=O)NOCCO)cc21 [Selumetinib] + C[C@@H]1COCCN1C2=NC(=NC(=C2)C3(CC3)[S@](=N)(=O)C)C4=C5C=CNC5=NC=C4 [AZD6738] (first compound max 10 µM, 7x7, partner max 10 µM)	0.51
Cc1cc2ncnn2cc1Nc1ncc2c(n1)n(C1CCOCC1)c(=O)n2C [AZD7648] + CCN(CCO)CCCOc1ccc2c(Nc3cc(CC(=O)Nc4cccc(F)c4)[nH]n3)ncnc2c1 [AZD2811] (first compound max 10 µM, 7x7, partner max 1 µM)	0.482
N#Cc1cnc(Nc2cc(NC[C@H]3CNCCO3)c(C(F)(F)F)cn2)cn1 [SRA737] + C=CCn1c(=O)c2cnc(Nc3ccc(N4CCN(C)CC4)cc3)nc2n1-c1cccc(C(C)(C)O)n1 [AZD1775] (first compound max 10 µM, partner max 1 µM)	0.812
C[C@@H](Oc1cc(-c2cnn(C3CCNCC3)c2)cnc1N)c1c(Cl)ccc(F)c1Cl [Crizotinib] + CC1=C(C(=CC=C1)Cl)NC(=O)C2=CN=C(S2)NC3=CC(=NC(=N3)C)N4CCN(CC4)CCO [Dasatinib] (first compound max 10 µM, 7x7, partner max 2 µM)	0.978

====

Test system: C-4-I (Cervical Carcinoma)
PROTOCOL DETAILS: Bliss excess, mean over the matrix (fraction); higher = more synergy
MEASUREMENT NAME: Bliss excess

COMPOUND	EXPERIMENTAL RESULT
CCc1c2c(nc3ccc(O)cc13)-c1cc3c(c(=O)n1C2)COC(=O)[C@]3(O)CC [SN-38] + O=C(c1cc(Cc2n[nH]c(=O)c3ccccc23)ccc1F)N1CCN(C(=O)C2CC2)CC1 [Olaparib] (first compound max 0.3 µM, 7x7, partner max 10 µM)	0.055
NC1(C(=O)N[C@@H](CCO)c2ccc(Cl)cc2)CCN(c2ncnc3[nH]ccc23)CC1 [Capivasertib] + COc1nnc2ccc(N3CCC(c4ccc(OCCN5CCN(C)C(=O)[C@H]5C)cc4)CC3)nn12 [AZD5153] (first compound max 10 µM, 7x7, partner max 1 µM)	0.046
Cc1c2c(nn1C)CSCc1cc(n(C)n1)CSc1cc(c3ccccc3c1)OCCCc1c(C(=O)O)n(C)c3c-2c(Cl)ccc13 [AZD5991] + CCN(CCO)CCCOc1ccc2c(Nc3cc(CC(=O)Nc4cccc(F)c4)[nH]n3)ncnc2c1 [AZD2811] (first compound max 1 µM, 7x7, partner max 1 µM)	0.0332
COc1cccc(OCCCN)c1-c1cc(Nc2cnc(C#N)cn2)n[nH]1 [Prexasertib] + Cc1cc2ncnn2cc1Nc1ncc2c(n1)n(C1CCOCC1)c(=O)n2C [AZD7648] (first compound max 1 µM, 7x7, partner max 10 µM)	0.0005
Cc1cc2ncnn2cc1Nc1ncc2c(n1)n(C1CCOCC1)c(=O)n2C [AZD7648] + CCN(CCO)CCCOc1ccc2c(Nc3cc(CC(=O)Nc4cccc(F)c4)[nH]n3)ncnc2c1 [AZD2811] (first compound max 10 µM, 7x7, partner max 1 µM)	0.048
NC1(C(=O)N[C@@H](CCO)c2ccc(Cl)cc2)CCN(c2ncnc3[nH]ccc23)CC1 [Capivasertib] + CC(=O)c1c(C)c2cnc(Nc3ccc(N4CCNCC4)cn3)nc2n(C2CCCC2)c1=O [Palbociclib] (first compound max 10 µM, 7x7, partner max 10 µM)	-0.0334
NC1(C(=O)N[C@@H](CCO)c2ccc(Cl)cc2)CCN(c2ncnc3[nH]ccc23)CC1 [Capivasertib] + CCN(CCO)CCCOc1ccc2c(Nc3cc(CC(=O)Nc4cccc(F)c4)[nH]n3)ncnc2c1 [AZD2811] (first compound max 10 µM, 7x7, partner max 1 µM)	-0.0492
COc1nnc2ccc(N3CCC(c4ccc(OCCN5CCN(C)C(=O)[C@H]5C)cc4)CC3)nn12 [AZD5153] + Cc1c2c(nn1C)CSCc1cc(n(C)n1)CSc1cc(c3ccccc3c1)OCCCc1c(C(=O)O)n(C)c3c-2c(Cl)ccc13 [AZD5991] (first compound max 1 µM, 7x7, partner max 1 µM)	0.0867
Cc1c2c(nn1C)CSCc1cc(n(C)n1)CSc1cc(c3ccccc3c1)OCCCc1c(C(=O)O)n(C)c3c-2c(Cl)ccc13 [AZD5991] + C[C@@H]1COCCN1C2=NC(=NC(=C2)C3(CC3)[S@](=N)(=O)C)C4=C5C=CNC5=NC=C4 [AZD6738] (first compound max 1 µM, 7x7, partner max 10 µM)	0.0416
Cn1cnc2c(F)c(Nc3ccc(Br)cc3Cl)c(C(=O)NOCCO)cc21 [Selumetinib] + CC(C)n1c(=O)n(C)c2cnc3cc(F)c(-c4ccc(OCCCN5CCCCC5)nc4)cc3c21 [AZD1390] (first compound max 10 µM, 7x7, partner max 0.3 µM)	-0.0078
CC(=O)c1c(C)c2cnc(Nc3ccc(N4CCNCC4)cn3)nc2n(C2CCCC2)c1=O [Palbociclib] + Cc1c2c(nn1C)CSCc1cc(n(C)n1)CSc1cc(c3ccccc3c1)OCCCc1c(C(=O)O)n(C)c3c-2c(Cl)ccc13 [AZD5991] (first compound max 10 µM, 7x7, partner max 1 µM)	-0.115
CN(CCO)CC[C@H](CSc1ccccc1)Nc1ccc(S(=O)(=O)NC(=O)c2ccc(N3CCC([C@@H](O)c4ccccc4-c4ccc(Cl)cc4)CC3)cc2)cc1S(=O)(=O)C(F)(F)F [AZD4320] + CCN(CCO)CCCOc1ccc2c(Nc3cc(CC(=O)Nc4cccc(F)c4)[nH]n3)ncnc2c1 [AZD2811] (first compound max 1 µM, 7x7, partner max 1 µM)	0.0557
CC(=O)Nc1cccc(-n2c(=O)n(C3CC3)c(=O)c3c(Nc4ccc(I)cc4F)n(C)c(=O)c(C)c32)c1 [Trametinib] + Cc1nc(-c2cn3c(n2)-c2ccc(-c4cnn(C(C)(C)C(N)=O)c4)cc2OCC3)n(C(C)C)n1 [Taselisib] (first compound max 1 µM, 7x7, partner max 10 µM)	0.229
COc1cc2ncnc(Nc3ccc(F)c(Cl)c3)c2cc1OCCCN1CCOCC1 [Gefitinib] + CC(C)n1c(=O)n(C)c2cnc3cc(F)c(-c4ccc(OCCCN5CCCCC5)nc4)cc3c21 [AZD1390] (first compound max 10 µM, 7x7, partner max 0.3 µM)	-0.042
